measurement target: T1, human ferroportin (SLC40A1) fused in frame with GFP, stably expressed in HEK293 cells (human, UniProt Q9NP59 1-571)
T1 sequence (looked up): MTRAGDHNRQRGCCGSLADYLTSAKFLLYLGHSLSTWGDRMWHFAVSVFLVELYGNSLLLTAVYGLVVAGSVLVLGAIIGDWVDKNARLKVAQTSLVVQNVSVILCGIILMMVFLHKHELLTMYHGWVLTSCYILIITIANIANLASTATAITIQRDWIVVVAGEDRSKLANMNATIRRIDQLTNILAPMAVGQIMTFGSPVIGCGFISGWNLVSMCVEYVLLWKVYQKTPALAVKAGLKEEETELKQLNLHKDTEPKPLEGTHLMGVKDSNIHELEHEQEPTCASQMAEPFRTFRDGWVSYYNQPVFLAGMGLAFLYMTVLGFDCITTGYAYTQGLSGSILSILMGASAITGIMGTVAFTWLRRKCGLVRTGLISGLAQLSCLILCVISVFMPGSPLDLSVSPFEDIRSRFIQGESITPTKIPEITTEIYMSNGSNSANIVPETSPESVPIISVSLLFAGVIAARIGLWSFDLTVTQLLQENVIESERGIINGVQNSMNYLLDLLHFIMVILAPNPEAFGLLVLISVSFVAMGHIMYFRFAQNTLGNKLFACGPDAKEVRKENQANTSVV
experiment notes: cell-based or functional assay
quantity: Potency: percent at the stated concentration, ferroportin-GFP internalization/degradation (% at 10 uM)

Examples with their reported Potency: percent at the stated concentration, ferroportin-GFP internalization/degradation follow.
# binder, observed result
rows = [
    ("H-DTHFPCKIF-NH2 [Hy-DTHFPCKIF-NH2]", 9),
    ("H-DTHFPCRIF-NH2 [Hy-DTHFPCRIF-NH2]", 31),
    ("H-DTHFVCIIF-NH2 [Hy-DTHFVCIIF-NH2]", 50),
    ("H-DTHFPCIIY-NH2 [Hy-DTHFPCIIY-NH2]", 75),
    ("H-DPHFPCIIF-NH2 [Hy-DPHFPCIIF-NH2]", 64),
]

[1] H-DTHFPCRF-NH2 [Hy-DTHFPCRF-NH2]
[2] H-DTHFPCVIF-NH2 [Hy-DTHFPCVIF-NH2]
From the items above, decide which of 1 and 2 has the lower Potency: percent at the stated concentration, ferroportin-GFP internalization/degradation reading. API: response body contains the label of the selected item.
1
(1: 31 % at 10 uM, 2: 81 % at 10 uM)
